- Test system: c-Abl (mouse)
- protocol.details: phosphorylation enrichment, bacterial display (enrichment ratio); higher = better substrate or ligand; peptides without Tyr show the background;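 further: 11-residue human phosphosite peptides and single-mutation variants displayed on the E. coli surface, counted by deep sequencing, each peptide's frequency after selection divided by its frequency in the unselected input library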;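 further: frequency after pTyr selection over input frequency; kinase dosed for 20-30% of maximal phosphorylation in three min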
Each entry below carries its recorded phosphorylation enrichment.
Lab note: write the figure by itself, no unit.

Observe how each entry below is paired with its result.
sequence.data	meas.value
SVQVEYMKTIL [GLYATL2_Y127_D126E]	0.484
NGEDLYAGSTD [XRCC1_Y515_P514L]	0.743
ALSDGYWVVSN [TPP1_Y459]	0.71
LIYTNYEVGKD [GSTP1_Y112_A114V]	14.1
MSSHHYDFKKF [ZNF445_Y428_YF]	0.39

Entry IGNGFYFRVFS [MYBPC3_Y1136_YF] ; phosphorylation enrichment = 0.818

Lab note: measured phosphorylation enrichment of EKKDIYKAGEQ [CFH_Y1008_V1007I] was 0.5

Lookup result for DLRGIYQKLVI ; measured phosphorylation enrichment: 1.76

In plain terms, WKEIEYEVVPD [CPS1_Y634_R638P] has a documented phosphorylation enrichment of 0.639

Form: sequence = FSQNIYIQNRN [PKP2_Y631_YF] ; phosphorylation enrichment = 0.459

Just so you know, measured phosphorylation enrichment for CETMEYLESKQ [BTK_Y511_A508T] came out at 0.98

Entry SFLFRYADDSF [RAB3C_Y50] , phosphorylation enrichment reported as 0.582

GET /value?item= AFPGEYIPTVF [RAC1_Y32] &field=phosphorylation enrichment returns 0.689

The reported value for KSPDSYQKILL [ATM_Y1415] in terms of phosphorylation enrichment is 0.569

For record ADAGMYGVLPW [PLP1_Y207_R205G] the listed phosphorylation enrichment is 3.07

The measured phosphorylation enrichment associated with DRLASYPEKVR [KRT13_Y118_L119P] reads 0.41

Measured phosphorylation enrichment, FPDFVYKRIKA [DPYSL2_Y479] : 0.362

get_value(item= EVASVYESYQP [MAVS_Y92_Q93E] , readout=phosphorylation enrichment) returns 0.783

----------
- experimental.target: Hck (UniProt P08631)
- Sequence (P08631 whole entry, looked up): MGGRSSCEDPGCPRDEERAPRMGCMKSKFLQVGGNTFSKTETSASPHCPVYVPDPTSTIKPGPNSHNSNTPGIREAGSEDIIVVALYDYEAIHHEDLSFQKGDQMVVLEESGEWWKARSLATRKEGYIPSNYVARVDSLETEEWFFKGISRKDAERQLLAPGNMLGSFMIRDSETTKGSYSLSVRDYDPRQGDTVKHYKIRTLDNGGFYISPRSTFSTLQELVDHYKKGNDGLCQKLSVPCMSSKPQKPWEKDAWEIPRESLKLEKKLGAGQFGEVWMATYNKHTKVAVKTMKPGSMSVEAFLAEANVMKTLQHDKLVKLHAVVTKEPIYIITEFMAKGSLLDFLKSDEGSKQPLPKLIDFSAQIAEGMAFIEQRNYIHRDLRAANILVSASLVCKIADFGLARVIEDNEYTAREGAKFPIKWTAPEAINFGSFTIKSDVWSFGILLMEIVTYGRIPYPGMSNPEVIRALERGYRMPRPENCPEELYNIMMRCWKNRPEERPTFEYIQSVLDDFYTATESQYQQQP
- protocol.details: phosphorylation enrichment, bacterial display (enrichment ratio); higher = better substrate or ligand; peptides without Tyr show the background
readout.type: phosphorylation enrichment

Consider the reported phosphorylation enrichment for these sequences:
sequence.data	experimental.target	phosphorylation enrichment
FVTSMYNEILM [TRPV1_Y310]	Hck (UniProt P08631)	0.957
NYYDTYIKTCL [IQGAP2_Y1445]	Hck (UniProt P08631)	2.38
ISISPYPAILH [IFT80_Y588_T586S]	Hck (UniProt P08631)	0.377

// next entry
Entry KVKPIYFRTQG [AR_Y916_H918R] — recorded phosphorylation enrichment = 0.495

----------
- experimental.target: Fes (UniProt P07332)
- Sequence (P07332 whole entry, looked up): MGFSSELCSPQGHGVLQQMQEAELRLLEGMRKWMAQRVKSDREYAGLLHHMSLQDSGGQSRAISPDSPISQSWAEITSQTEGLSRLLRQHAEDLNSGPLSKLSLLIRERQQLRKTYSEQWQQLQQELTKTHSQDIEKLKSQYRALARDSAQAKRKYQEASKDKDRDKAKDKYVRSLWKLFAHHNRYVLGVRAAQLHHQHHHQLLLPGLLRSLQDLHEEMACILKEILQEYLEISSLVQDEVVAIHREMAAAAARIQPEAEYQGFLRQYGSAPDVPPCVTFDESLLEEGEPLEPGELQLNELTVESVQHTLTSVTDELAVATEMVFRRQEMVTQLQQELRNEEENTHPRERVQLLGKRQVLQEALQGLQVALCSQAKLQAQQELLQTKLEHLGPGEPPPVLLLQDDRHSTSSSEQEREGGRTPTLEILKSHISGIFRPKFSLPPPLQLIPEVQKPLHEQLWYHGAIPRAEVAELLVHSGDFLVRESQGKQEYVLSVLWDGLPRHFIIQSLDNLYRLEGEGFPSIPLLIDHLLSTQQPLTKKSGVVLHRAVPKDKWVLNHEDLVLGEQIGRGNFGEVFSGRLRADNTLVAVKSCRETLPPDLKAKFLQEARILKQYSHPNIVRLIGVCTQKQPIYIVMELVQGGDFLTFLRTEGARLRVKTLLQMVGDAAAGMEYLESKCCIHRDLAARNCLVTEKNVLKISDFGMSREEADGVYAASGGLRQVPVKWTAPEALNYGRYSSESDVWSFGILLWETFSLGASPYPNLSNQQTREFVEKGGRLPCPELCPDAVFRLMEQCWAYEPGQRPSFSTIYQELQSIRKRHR
- protocol.details: phosphorylation enrichment, bacterial display (enrichment ratio); higher = better substrate or ligand; peptides without Tyr show the background
readout.type: phosphorylation enrichment

sequence.data	phosphorylation enrichment
EVLKNYNQQKD [GOLGA4_Y1551]	1.07
TQNGVYSAANY [DDX5_Y535]	0.699
DASENYFVMDS [TMEM240_Y77_T80M]	1.1
LLNPSYNLPLD [TOM1L1_Y109_R108S]	1.45
IDDNQYAFLKA [HNF4A_Y286_E285Q_YF]	0.839

Per the record, ITVPAYFNDLQ [HSPA9_Y196_S200L] has phosphorylation enrichment of 1.3

Summary for this sequence, PCPANYFAFKI [FAM3D_Y65] : phosphorylation enrichment is 2.29

According to the records, this sequence GFVEDYRPPFY [ACVRL1_Y421_I417F] displays phosphorylation enrichment of 1.13

// recorded phosphorylation enrichment for MAALSYVSEIG [BPIFB2_Y36_K31M] : 0.733

Summary for this sequence, KGKLIYLLGDS [NXPE1_Y350] : phosphorylation enrichment is 0.922

Note to self: phosphorylation enrichment recorded for VNTTLYEKFTF [TEK_Y1108_YF] was 0.989

Sample VSNFNYFFHRE [KCNA1_Y413_YF] ; phosphorylation enrichment observed: 1.22

Memo: GKMSQYLESMQ [CYB5R3_Y130] , reported phosphorylation enrichment: 0.583

Noted for QPGDICHQTWA [GBA_Y244_Y244C] : its phosphorylation enrichment reads 1.08

Briefly, phosphorylation enrichment measured for SKAYAYVHFDS [PABPC5_Y149_G146A] : 1.19

Given item ENFSEYQEIAV [HEMGN_Y150] , the value recorded as its phosphorylation enrichment is 1.24

For SGVNKYSTAFG [GJB3_Y16] the sequence record lists phosphorylation enrichment as 0.614

Quick note, phosphorylation enrichment for ADARMYGDLPW [PLP1_Y207_V209D] landed at 0.794

Per the record, KLIMEYLPFGS [JAK2_Y931_YF] has phosphorylation enrichment of 1.09
